- measurement target: UniProtKB Q12852
- Sequence (Q12852 1-520): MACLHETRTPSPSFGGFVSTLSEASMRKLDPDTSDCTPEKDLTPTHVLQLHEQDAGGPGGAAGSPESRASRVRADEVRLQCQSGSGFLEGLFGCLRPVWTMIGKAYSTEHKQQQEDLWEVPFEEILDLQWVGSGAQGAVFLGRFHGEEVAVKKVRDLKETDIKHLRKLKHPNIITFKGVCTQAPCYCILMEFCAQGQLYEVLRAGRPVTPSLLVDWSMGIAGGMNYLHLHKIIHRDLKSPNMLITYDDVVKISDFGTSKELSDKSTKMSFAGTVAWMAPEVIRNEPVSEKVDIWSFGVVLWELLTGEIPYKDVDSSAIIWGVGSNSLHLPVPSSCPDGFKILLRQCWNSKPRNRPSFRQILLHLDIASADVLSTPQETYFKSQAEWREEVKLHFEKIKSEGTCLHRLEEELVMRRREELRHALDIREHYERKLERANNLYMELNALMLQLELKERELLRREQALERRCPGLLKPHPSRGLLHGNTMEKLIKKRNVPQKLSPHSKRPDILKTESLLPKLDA
endpoint name: pIC50
Note: pIC50 values are expressed as the negative base-10 logarithm of concentration in M.

Example results:
Entry "CC(C)c1ccccc1NC(=O)c1cc(-c2ccc3nc(N)nn3c2)cs1" ; assay system UniProtKB Q12852; pIC50 recorded at 6.59

Entry "Cn1cc(CNC(=O)c2cc(-c3ccc4nc(N)nn4c3)cs2)cn1" ; assay system UniProtKB Q12852; pIC50 recorded at 5.39

Entry CCC(C)c1nnc(-c2cc(-c3csc(C(=O)NCc4ccc(F)cc4)c3)cn3nc(N)nc23)s1 (stereo not shown) ; assay system UniProtKB Q12852; pIC50 recorded at 5.67

Entry "CC[C@H](NC(=O)c1cc(-c2cc(C(=O)NC3(CO)CC3)c3nc(N)nn3c2)cs1)c1ccc(F)cc1" ; assay system UniProtKB Q12852; pIC50 recorded at 7.14

Entry "Nc1nc2ccc(-c3csc(C(=O)NCc4cccs4)c3)cn2n1" ; assay system UniProtKB Q12852; pIC50 recorded at 6.59

Entry "Nc1nc2ccc(-c3csc(C(=O)NC4(c5ccc(F)cc5)CCC4)c3)cn2n1" ; assay system UniProtKB Q12852; pIC50 recorded at 6.92

Entry "CC[C@H](C)NC(=O)c1cc(-c2csc(C(=O)N[C@H]3CCOc4ccccc43)c2)cn2nc(N)nc12" ; assay system UniProtKB Q12852; pIC50 recorded at 8.14

Entry "C[C@H](NC(=O)c1cc(-c2cc(C(=O)NC3CCC3)c3nc(N)nn3c2)cs1)c1ccc(F)cc1" ; assay system UniProtKB Q12852; pIC50 recorded at 8.28

Entry "CC[C@@H](NC(=O)c1cc(-c2cc(C(=O)N[C@H]3CCOC3)c3nc(N)nn3c2)cs1)c1ccc(F)cc1" ; assay system UniProtKB Q12852; pIC50 recorded at 8.13

Entry "Nc1nc2cc(-c3csc(C(=O)NCc4ccccc4)c3)ccn2n1" ; assay system UniProtKB Q12852; pIC50 recorded at 6.30

***
Entry "CC(C)NC(=O)c1cc(-c2csc(C(=O)N[C@@H](C)c3nc4ccccc4o3)c2)cn2nc(N)nc12" ; assay system UniProtKB Q12852; pIC50 recorded at 7.85

Entry "N#Cc1cccc(CNC(=O)c2cc(-c3ccc4nc(N)nn4c3)cs2)c1" ; assay system UniProtKB Q12852; pIC50 recorded at 6.50

Entry "CC(C)NC(=O)c1cc(-c2csc(C(=O)N[C@H](C)c3ccc(F)cc3)c2)cc2nc(N)nn12" ; assay system UniProtKB Q12852; pIC50 recorded at 7.49

Entry C[C@H]1CCC[C@@H](NC(=O)c2cc(-c3ccc4nc(N)nn4c3)cs2)C1 (single isomer, unassigned) ; assay system UniProtKB Q12852; pIC50 recorded at 6.06

Entry "Nc1nc2ccc(-c3csc(C(=O)NCc4nc5ccccc5o4)c3)cn2n1" ; assay system UniProtKB Q12852; pIC50 recorded at 5.94

Entry CC(NC(=O)c1cc(-c2ccc3nc(N)nn3c2)cs1)c1nc2ccccc2n1C (stereo not shown) ; assay system UniProtKB Q12852; pIC50 recorded at 6.85

Entry C[C@H](NC(=O)c1cc(-c2cc(C(=O)NC3CCNC3)c3nc(N)nn3c2)cs1)c1ccc(F)cc1 (single isomer, unassigned) ; assay system UniProtKB Q12852; pIC50 recorded at 7.06

Entry "Nc1nc2ccc(-c3csc(C(=O)NC4CC4)c3)cn2n1" ; assay system UniProtKB Q12852; pIC50 recorded at 5.59

Entry "Nc1nc2cc(-c3csc(C(=O)NCc4ccc(F)cc4)c3)ccn2n1" ; assay system UniProtKB Q12852; pIC50 recorded at 6.19

Entry "Nc1nc2ccc(-c3csc(C(=O)NCc4ncco4)c3)cn2n1" ; assay system UniProtKB Q12852; pIC50 recorded at 5.73

Entry "COC[C@H](C)NC(=O)c1cc(-c2csc(C(=O)N[C@@H](C)c3ccccc3)c2)cn2nc(N)nc12" ; assay system UniProtKB Q12852; pIC50 recorded at 7.12
